molecular target: MAL^TIR (Homo sapiens, UniProt P58753); construct: MAL (residues 79–221); 6xHis; made in house; host or cells: E. coli BL21 (DE3); assay: T‐Surf phage library (P8 and P3) selection against MAL^TIR, four rounds, NGS read counts; type: binding; conditions: P8 library, selection against MAL TIR; rank by count after grouping
Sequence (P58753 79-221): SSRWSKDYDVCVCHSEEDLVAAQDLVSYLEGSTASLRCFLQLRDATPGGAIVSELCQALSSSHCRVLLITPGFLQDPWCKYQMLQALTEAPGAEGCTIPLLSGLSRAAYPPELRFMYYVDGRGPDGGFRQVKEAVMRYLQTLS
OBSERVATION_TYPE: P8_MAL Rank (after)

FTLAVQVRNLLVGAFI : 262
WFYESLVSMIMRDTKV : 213
LFFWESLKQRLRSDVR : 193
QLIQPWMELHLHQLHL : 246
HFFLDSTEKHSGRNQL : 277
RNFVAYLFRARANKGI : 225
KLLWVKFKFFLPSLSR : 211
DSKLKKGESIAPALLR : 215
YFLHFLLCSRPETAYI : 199
AFFWDSCVPCWANRR : 258
RWFLDELVKIMERKRT : 218
TFLGHLYIALVQTGIH : 261
SFLYTFLITLTHPTTF : 266
WKNALANIAEILGFEL : 287
AFFLGTAAYRAGQTDD : 198
SFFWNKLRYHLPAPQH : 269
NFLGLLYNELVQAGLH : 259
MFGGDTFHDFLDLISM : 192
SFYEPQVKMVLRNTTM : 282
AFFCAHLRTVLGKPTM : 267
AFFWTHLKNLPRNPTF : 285
DTKLKKCESIAPELLL : 204
AFLYTFLINLTHPQF : 275
CFYERLVNLILRDTKV : 205
AFFGAQLKSVLGNPPM : 210
AFFLAQLKSEPTNPTM : 272
AFLYTFLLNLTHPTNL : 223
DPQDLEWFYERLFSQM : 234
TFLGHLYNALVQAGKL : 230
RNLGAYLFQALANKGI : 254
KLFWEKFKFFLPTPSR : 201
AFLYTFLINDPSDQF : 214
KWFWDKLIYALSRNPH : 231
LFYEESLKQLLRANDR : 276
TFLRHLYNALVQAGLH : 245
YFLHFLLFSLRKPSI : 197
AFFGAQLKSVLRNPTM : 191
